Where do these numbers come from? They come from patent USRE36374E.

# Experimental Target: central muscarinic M-1-receptors (Rattus norvegicus)
# Sequence (P08482 1-460): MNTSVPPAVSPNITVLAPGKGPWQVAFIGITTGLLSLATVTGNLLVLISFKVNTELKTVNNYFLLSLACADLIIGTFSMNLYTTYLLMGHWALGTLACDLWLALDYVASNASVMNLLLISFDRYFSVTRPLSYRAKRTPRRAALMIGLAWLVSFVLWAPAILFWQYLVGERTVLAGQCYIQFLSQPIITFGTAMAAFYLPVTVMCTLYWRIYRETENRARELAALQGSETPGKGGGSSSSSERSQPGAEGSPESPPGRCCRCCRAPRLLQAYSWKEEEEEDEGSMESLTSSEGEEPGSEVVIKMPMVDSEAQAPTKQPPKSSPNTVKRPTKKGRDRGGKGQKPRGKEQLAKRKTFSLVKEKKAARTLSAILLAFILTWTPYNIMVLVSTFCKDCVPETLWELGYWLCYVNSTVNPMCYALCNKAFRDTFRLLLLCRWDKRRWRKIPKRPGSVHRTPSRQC
# Experiment Description: 3H-pirenzepine (Pz) displacement from rat brain homogenates
# Assay type: binding
# Measurement Setup: displacement of 1.0 nM 3H-pirenzepine, rat brain homogenates, 60 min, 25° C; read-out: Pz, IC50
Structures can show the parent of a compound that is named as a salt.
Doc: threshold 0.6 µM (exclusive). Items with IC50 beneath it return condition met; others return condition not met.

| Compound | Cat |
| --- | --- |
| Cc1cnc(C2=CCCNC2)o1 [Compound 76, fumarate] | condition not met |
| C#CCn1nnc(C2=CCCNC2)n1 [Compound 22, hydrochloride] | condition met |
| Cc1coc(C2=CCCNC2)n1 [Compound 85, fumarate] | condition not met |
| CSc1cnc(C2=CCCN(C)C2)s1 [Compound 93, fumarate] | condition met |
| CSc1n[nH]c(C2=CCCN(C)C2)n1 [Compound 67, fumarate] | condition not met |
| COc1cnc(C2=CCCN(C)C2)o1 [Compound 80, oxalate] | condition not met |
| C=C=Cn1nnc(C2=CCCNC2)n1 [Compound 23, hydrochloride] | condition not met |
| CN1CCC=C(c2nnn(C)n2)C1 | condition met |
| COc1cnc(C2=CCCNC2)o1 | condition not met |
| CN1CCC=C(c2cnn(C)n2)C1 | condition met |
